# PROTOCOL: gradient 5% acetonitrile 3 min, to 50% in 2 min, to 85% in 15 min, held 3 min, 100 µL/min
# COND: column: Zorbax Extend-C18 2.1 x 50 mm; eluents: water / acetonitrile, 0.1% formic acid
Everything with RP-LC retention time lower than 900 s is not fulfilled; everything else, including exactly 900 s, is fulfilled.

CCOC(=O)c1c(-c2ccc(OC)c(OC)c2)csc1NC(=O)CN1CCCC1 ... not fulfilled
O=C(NC1(c2nc(-c3ccccc3)no2)CCCCC1)c1ccc(C(F)(F)F)cc1 ... fulfilled
COc1ccc(N2CCN(C(=O)CN3C(=O)NC(c4ccc(Cl)cc4)C4=C3COC4=O)CC2)cc1 (centres undefined) ... not fulfilled
CCOC(=O)c1ccc2nc(C(F)(F)F)nc(NC(C)CCc3ccccc3)c2c1 (centres undefined) ... fulfilled
Cc1ccc2c(c1)N(Cc1nc(-c3cccc(Br)c3)no1)C(=O)CO2 ... fulfilled
CC(C)(C)c1noc(-c2ccc(=O)n(Cc3ccc(Cl)cc3)n2)n1 ... fulfilled

input: Evaluate `Cc1ccc(N2CCN(S(=O)(=O)N(C)C)CC2)cc1Cl` : RP-LC retention time at minimum 900 s?
output: fulfilled

input: Identify whether the reported RP-LC retention time of the following molecule is 900 s or greater: `CCn1cc(-c2ccc(C)cc2)cc1C(=O)NCc1cccnc1`
output: not fulfilled

====

# PROTOCOL: gradient 5% acetonitrile 3 min, to 50% in 2 min, to 85% in 15 min, held 3 min, 100 µL/min
# COND: column: Zorbax Extend-C18 2.1 x 50 mm; eluents: water / acetonitrile, 0.1% formic acid
ENDPOINT NAME: RP-LC retention time
Just so you know, I need the unit written after the number.

Given item `COc1cccc(NC(=O)Nc2ccc3nc(N4CCN(C)CC4)cc(C)c3c2)c1` , the value recorded as its RP-LC retention time is 587 s

Short answer for `CCc1ccc(S(=O)(=O)N2CCc3c(c(-c4nnc(-c5ccccc5F)o4)nn3C)C2)cc1` : RP-LC retention time was 1040 s

RP-LC retention time in this record for `COc1ccc(NC(=O)Cn2c(=O)n(-c3ccc(C)cc3)c3ncccc32)c(OC)c1` : 872 s

====

# PROTOCOL: gradient 5% acetonitrile 3 min, to 50% in 2 min, to 85% in 15 min, held 3 min, 100 µL/min
# COND: column: Zorbax Extend-C18 2.1 x 50 mm; eluents: water / acetonitrile, 0.1% formic acid
We label by threshold. Values of RP-LC retention time strictly beneath 700 s are 1. Values of 700 s and up are 0.

The following compounds have reported results that may help.
CCC(c1cccs1)N1C(=O)[C@H]2CN(S(=O)(=O)c3ccccc3C)C[C@H]2C1=O (stereo not given in full) ... 0
CCN(CC)CCNC(=O)C1CCCN(c2nc3cccnc3s2)C1 (stereo not given) ... 1
Fc1cccc(-c2nn3c(-c4ccc5ccccc5n4)nnc3s2)c1 ... 0
O=C([C@@H]1C[C@H](Oc2cccnc2)CN1C(=O)CCC1CCCC1)N1CCCC1 ... 1
CCC(=O)NCC[C@@H]1CCc2ccc3c(c21)CCO3 ... 0
CNC(=O)NC1CCN(c2ccc(C)c(C)c2)C1=O (stereo not given) ... 1

input: Answer whether the compound `CO[C@H]1CN(C2CCN(Cc3cn(C(C)C)c4ccccc34)CC2)[C@H]1c1ccncc1` has RP-LC retention time strictly less than 700 s
output: 1

input: Is RP-LC retention time of `Cc1cc(NC(=O)N(C)Cc2nc3cc(C(=O)N(C)C)ccc3n2C)ccc1Br` strictly below 700 s?
output: 1

input: Strictly below 700 s in RP-LC retention time? COCC(=O)NC1CCC12CCN(Cc1ccc(C)o1)CC2 (stereo not given)
output: 1

====

# PROTOCOL: gradient 5% acetonitrile 3 min, to 50% in 2 min, to 85% in 15 min, held 3 min, 100 µL/min
# COND: column: Zorbax Extend-C18 2.1 x 50 mm; eluents: water / acetonitrile, 0.1% formic acid
# note: exactly 600 s is not below, so it is NO; use YES for RP-LC retention time strictly under it

Worked examples follow.
CCNc1nc(N(CC)CC)nc(-n2cnc(SC)n2)n1 ... NO
CCN(CCCNC(=O)Cn1ccc2c(=O)n(C)c(=O)n(C)c21)c1ccccc1 ... YES
COc1ccc(CC(=O)N2CCCC2c2cc(C)on2)cc1 (stereo not given) ... NO

Shifting focus to the molecule that follows.
input: Is it true that RP-LC retention time reported for `Cc1noc(-c2ccc(OC3CN(C(=O)Nc4cccc(F)c4)C3)cc2)n1` is less than 600 s?
output: NO

====

The compounds listed here are annotated with their RP-LC retention time.
# PROTOCOL: gradient 5% acetonitrile 3 min, to 50% in 2 min, to 85% in 15 min, held 3 min, 100 µL/min
# COND: column: Zorbax Extend-C18 2.1 x 50 mm; eluents: water / acetonitrile, 0.1% formic acid

Worked cases, RP-LC retention time given:
COCCNC(=O)CN1CCN(c2cc(C(=O)O)c3cc(NC(=O)C(C)(C)C)ccc3n2)CC1 ... 561 s
O=C(CN1C(=O)COc2cc(Cl)ccc21)NC1CC1 ... 714 s
Cc1ccc(CNC(=O)CN2C(=O)CCCc3cc(S(=O)(=O)N4CCCCC4)ccc32)cc1 ... 891 s

// RP-LC retention time lookup, compound = COC(=O)c1ncn2c1C(=O)N(Cc1ccccc1)C(C)(C(=O)NC1CCCCCC1)C2 (centres undefined) , result: 777 s

The value of RP-LC retention time measured for the compound `CNC(=O)c1ccc(-n2nc(Sc3ccc(OC)cc3)ccc2=O)cc1` turned out to be 702 s

Lab note: `Cc1ccc(NC(=O)N2CCc3nc(-c4ccccc4)ncc3C2)cc1F` gave RP-LC retention time of 988 s

Noted for `CCn1nccc1-c1cccc(-c2noc(-c3c(F)cccc3F)n2)c1` : its RP-LC retention time reads 1270 s

Record `COCCNC(=O)CC1CCN(C(=O)c2ccc3oc(C4CC4)nc3c2)CC1` , field RP-LC retention time: 601 s

Value of RP-LC retention time reported for the compound `CCN1C(=O)COc2ccc(-c3noc(-c4cc(C)cc(C)c4)n3)cc21` is 1330 s

====

# PROTOCOL: gradient 5% acetonitrile 3 min, to 50% in 2 min, to 85% in 15 min, held 3 min, 100 µL/min
# COND: column: Zorbax Extend-C18 2.1 x 50 mm; eluents: water / acetonitrile, 0.1% formic acid
ENDPOINT NAME: RP-LC retention time (s)
Report the value in s with no unit label.

COc1ccc(N2CC(c3nc(-c4cc(OC)c(OC)c(OC)c4)no3)CC2=O)cc1 (centres undefined) ... 743
Cc1nc2cc3c(cc2n1CC(=O)Nc1ccc(F)c(Cl)c1)OCCO3 ... 690
CC(C)NC(=O)Cn1cnc2nc(N3CCC(C(=O)NC4CC4)CC3)sc2c1=O ... 1060

# RP-LC retention time of `O=C(CC1CCN(C(=O)NC2CCCCC2)CC1)N1CCN(c2ccccn2)CC1` = 598

Short answer for `COc1cccc(CNC(=O)Cn2cccc2-c2nnc(-c3ccccc3)o2)c1` : RP-LC retention time was 895

Query Cc1nc(C)c(C(=O)N2CCC(CC(=O)N3CCOCC3)C2)s1 (centres undefined) yields RP-LC retention time of 684

Data point: `COc1ccc(N2CCN(c3cc(C(=O)O)c4cc(NC(=O)CC(C)C)ccc4n3)CC2)cc1` ; RP-LC retention time = 655

The molecule `COc1ccc(CN2CCC[C@H]2c2nc(C3CCOCC3)n[nH]2)c(Cl)c1OC` showed RP-LC retention time equal to 584

get_value(item= CC(C)CCNC(=O)C1(C)CN(S(=O)(=O)c2ccccc2)CC(=O)N1c1ccc(F)cc1 (centres undefined) , readout=RP-LC retention time) returns 959

Item: CCN1C(=O)c2c(C(=O)NCc3ccccc3Cl)ncn2CC1(C)C(=O)NC1CCCC1 (centres undefined) | RP-LC retention time: 779

// recorded RP-LC retention time for CC(=O)N1c2ccc(S(=O)(=O)N3CCCCC3)cc2CC1C(=O)NC1CCCC1 (centres undefined) : 830

Recorded RP-LC retention time (molecule Cc1cc(F)ccc1NC(=O)C1CC(=O)N(c2ccc3c(c2)CCN3C(=O)C2CC2)C1 (centres undefined) ): 758

Query `O=C(Cn1c(=O)c2nncn2c2ncccc21)N1CCN(c2ccccc2)CC1` yields RP-LC retention time of 674

====

# PROTOCOL: gradient 5% acetonitrile 3 min, to 50% in 2 min, to 85% in 15 min, held 3 min, 100 µL/min
# COND: column: Zorbax Extend-C18 2.1 x 50 mm; eluents: water / acetonitrile, 0.1% formic acid
Recorded RP-LC retention time by entry
Give the quantity in s, number only.

Guide cases for RP-LC retention time, answers given:
O=C(c1ccccc1Cl)N1CCC(Cc2nnc(-c3ccccc3)o2)CC1 ... 864
CCc1nc(-c2csc(S(=O)(=O)N3CCCC(C(=O)Nc4ccccc4Cl)C3)c2)no1 (stereo not given) ... 1020

The reported RP-LC retention time of the molecule COc1cccc(-c2noc(C3CCCN3C(=O)Nc3ccc(Br)cc3)n2)c1 (stereo not given) was 964

Field RP-LC retention time (entry O=C1C(NS(=O)(=O)c2ccc(C(F)(F)F)cc2)CCN1c1ccc(F)cc1 (stereo not given) ) reads 964

Reported RP-LC retention time ( `CCn1cnc(S(=O)(=O)N2CCC(C(=O)Nc3ccc(F)cc3)CC2)c1` ) = 709

RP-LC retention time recorded for this molecule, `O=C(CSc1ccc(-n2ccnc2)nn1)NC1CCCCC1` , is 564

Short answer for `O=C1CCCc2cc(S(=O)(=O)NCCN3CCN(c4ccccc4)CC3)ccc2N1` : RP-LC retention time was 621

Just so you know, measured RP-LC retention time for `c1ccc(-c2ccc(CNCCc3c[nH]c4ccccc34)o2)cc1` came out at 735

# RP-LC retention time of `COc1ccc2[nH]c(C(=O)Nc3ccccc3)cc2c1` = 880

For `CSc1ccc(-c2nc3ccc(C)cn3c2Nc2ccc3c(c2)OCO3)cc1` the molecule record lists RP-LC retention time as 739

Field RP-LC retention time (entry `Cn1cccc1C(=O)C(=O)NCc1cccc(Br)c1` ) reads 918

# RP-LC retention time (molecule: `CCCCNC(=O)C1(c2ccc(NC(C)=O)cc2)CCC1` ) is 704

Lab book: RP-LC retention time of `O=S(=O)(c1cccc(Cl)c1)N1CCN(c2cnn3cnnc3c2)CC1` noted as 703

// provenance: the METLIN SMRT retention time set (Domingo-Almenara et al. 2019)
